Target: recombinant 15-PGDH (Homo sapiens (Human), UniProt P15428)
Sequence (P15428 whole entry): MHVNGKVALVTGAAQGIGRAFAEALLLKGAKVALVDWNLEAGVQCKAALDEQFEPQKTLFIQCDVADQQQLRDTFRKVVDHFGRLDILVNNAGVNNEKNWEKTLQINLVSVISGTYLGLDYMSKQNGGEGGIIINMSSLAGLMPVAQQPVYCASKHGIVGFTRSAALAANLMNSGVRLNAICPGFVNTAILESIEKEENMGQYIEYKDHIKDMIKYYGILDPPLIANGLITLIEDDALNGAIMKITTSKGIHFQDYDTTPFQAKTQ
Assay: inhibition of enzymatic activity of recombinant 15-PGDH, in vitro assay
Format: biochemical
Conditions: Enzyme Inhibitor IC50 (nM) at 1 nM 15-PGDH, 1 nM recombinant 15-PGDH
Source text: This Example provides data on a group of structural analogues of SW033291. Data provided is the IC50 of each compound for inhibiting enzymatic activity of recombinant 15-PGDH in an in vitro assay. Recombinant 15-PGDH is human unless otherwise specified. Additionally, the example provides aqueous solubility data for selected analogues in pH 7 or pH 4 citrate buffer solution.
measurement-name: IC50 (nM)

a. CCCC[S+]([O-])c1sc2nc(-c3cccnc3)nc(-c3ccccc3)c2c1N (single isomer, unassigned) [74A]
b. CCCC[S+]([O-])c1sc2nc(-c3cccnc3)nc(-c3ccccc3)c2c1N (single isomer, unassigned) [74B]
Task: Hi! Which is lower in terms of IC50, the first one a or the second one b ? Reply with the label of the item you choose.
Output: a

* * *

biological target: recombinant 15-PGDH (Homo sapiens (Human), UniProt P15428); test: inhibition of enzymatic activity of recombinant 15-PGDH, in vitro assay; type: biochemical; settings: read-out: Enzyme Inhibitor IC50 (nM) at 5 nM 15-PGDH; 5 nM recombinant 15-PGDH
measurement-name: IC50 (nM)

In [3]: df
Out[3]:
                                   compound  measurement_name  experimental_value
0  CCCC[S+]([O-])c1sc2nc(-c3nccs3)cc3c4c(nc1c23)NC=NC=4 (centres unmarked)              IC50                 132

a. CCCC[S+]([O-])c1sc2nc(-c3nccs3)cc(-c3cn(C)c(C)n3)c2c1N (centres unmarked)
b. CCCC[S+]([O-])c1sc2nc(-c3nccs3)cc3c2c1Nc1ncncc1-3 (centres unmarked)
c. CCCC[S@@+]([O-])c1sc2nc(-c3nccs3)cc(-c3cn(C)c(C)n3)c2c1N (stereo in doubt)
Task: # rank by IC50, ascending (min first) List the labels in the requested order.
Output: c, a, b

* * *

target: recombinant 15-PGDH (Homo sapiens (Human), UniProt P15428); assay: inhibition of enzymatic activity of recombinant 15-PGDH, in vitro assay; type: biochemical; details: read-out: Enzyme Inhibitor IC50 (nM) at 1 nM 15-PGDH; 1 nM recombinant 15-PGDH
measurement-name: IC50 (nM)

                                   compound  measurement_name  experimental_value
0  CCCC[S@+]([O-])c1sc2nc(-c3cccnc3)cc(-c3cnc(C)n3C)c2c1N [38B]              IC50                  27
1  CCCC[S@@+]([O-])c1sc2nc(-c3ccncn3)cc(-c3ccccc3)c2c1N [47A]              IC50                0.65
2  COCCC[S@@+]([O-])c1sc2nc(-c3cccnc3)cc(-c3cncn3C)c2c1N [50A]              IC50                0.57

1. COCCC[S@@+]([O-])c1sc2nc(-c3cccnc3)cc(-c3ccccc3)c2c1N [68A]
2. CCCC[S@+]([O-])c1sc2nc(-c3cnc(N)nc3)cc(-c3ccc(F)cc3)c2c1N [61B]
Task: Could you tell me which of 1 and 2 has the lower IC50 reading? Answer by quoting the chosen item's label.
Output: 1
(1: 0.48 nM, 2: 24 nM)
